tested on: MOLT-3 lymphoblastic leukemia cell line; assay: Cytotoxicity assay; type: cell-based; details: Homo sapiens, MOLT-3, 48 h, read-out: Cytotoxic activity IC50, MOLT-3
The following molecules are listed with their measured IC50 values.

Compound String: O=C(/C=C/c1ccc(O)cc1)c1ccc(NC2=C(Cl)C(=O)c3ccccc3C2=O)cc1
Experimental System: MOLT-3 lymphoblastic leukemia cell line
IC50 / nM: 2350
//
Compound String: COc1cc(/C=C/C(=O)c2cccc(NC3=C(Cl)C(=O)c4ccccc4C3=O)c2)cc(OC)c1O
Experimental System: MOLT-3 lymphoblastic leukemia cell line
IC50 / nM: 1100
//
Compound String: COc1cccc(/C=C/C(=O)c2cccc(NC3=C(Cl)C(=O)c4ccccc4C3=O)c2)c1OC
Experimental System: MOLT-3 lymphoblastic leukemia cell line
IC50 / nM: 1240
//
Compound String: COc1cccc(/C=C/C(=O)c2ccc(NC3=C(Cl)C(=O)c4ccccc4C3=O)cc2)c1
Experimental System: MOLT-3 lymphoblastic leukemia cell line
IC50 / nM: 1780
